Record form. Attribute: inhibition. Fill in for each entry.
STUDY_TARGET: 5-hydroxytryptamine receptor 4 (Homo sapiens) (UniProt Q13639)
Sequence (Q13639 whole entry): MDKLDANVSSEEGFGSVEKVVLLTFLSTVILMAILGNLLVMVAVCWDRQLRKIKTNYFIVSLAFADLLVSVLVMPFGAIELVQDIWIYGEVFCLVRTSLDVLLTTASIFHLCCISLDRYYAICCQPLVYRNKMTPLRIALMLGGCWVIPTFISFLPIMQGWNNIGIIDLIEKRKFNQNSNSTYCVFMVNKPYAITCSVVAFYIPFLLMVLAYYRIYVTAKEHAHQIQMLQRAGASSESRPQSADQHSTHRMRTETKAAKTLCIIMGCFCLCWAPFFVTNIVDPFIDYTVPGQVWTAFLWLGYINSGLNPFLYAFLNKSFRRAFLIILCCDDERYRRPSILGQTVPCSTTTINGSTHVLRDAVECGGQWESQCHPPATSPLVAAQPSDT
ASSAY_SUMMARY: Displacement of [3H]GR113808 from human 5-HT4R at 1 uM by radioligand binding assay
// note: answer is a bare numeric in %

Lab note: 5-hydroxytryptamine receptor 4 (Homo sapiens) (UniProt Q13639) assay, enter inhibition for `COc1cc(N)c(Cl)cc1C(=O)CCC1CCN(CC2CCCCC2)CC1` here
100

Lab note: 5-hydroxytryptamine receptor 4 (Homo sapiens) (UniProt Q13639) assay, enter inhibition for `COc1cc(N)c(Cl)cc1C(=O)CCC1CCN(CC2CCCC2)CC1` here
100

Lab note: 5-hydroxytryptamine receptor 4 (Homo sapiens) (UniProt Q13639) assay, enter inhibition for `COc1cc(N)c(Cl)cc1C(=O)CCC1CCN(Cc2ccccc2)CC1` here
100

Lab note: 5-hydroxytryptamine receptor 4 (Homo sapiens) (UniProt Q13639) assay, enter inhibition for `COc1cc(N)c(Cl)cc1C(=O)CCC1CCN(CC2CCCCCC2)CC1` here
99

Lab note: 5-hydroxytryptamine receptor 4 (Homo sapiens) (UniProt Q13639) assay, enter inhibition for `COc1cc(N)c(Cl)cc1C(=O)CCC1CCN(CC2CCNCC2)CC1` here
100
